SUBJECT_OF_TEST: ETS1 (UniProt P14921)
Sequence: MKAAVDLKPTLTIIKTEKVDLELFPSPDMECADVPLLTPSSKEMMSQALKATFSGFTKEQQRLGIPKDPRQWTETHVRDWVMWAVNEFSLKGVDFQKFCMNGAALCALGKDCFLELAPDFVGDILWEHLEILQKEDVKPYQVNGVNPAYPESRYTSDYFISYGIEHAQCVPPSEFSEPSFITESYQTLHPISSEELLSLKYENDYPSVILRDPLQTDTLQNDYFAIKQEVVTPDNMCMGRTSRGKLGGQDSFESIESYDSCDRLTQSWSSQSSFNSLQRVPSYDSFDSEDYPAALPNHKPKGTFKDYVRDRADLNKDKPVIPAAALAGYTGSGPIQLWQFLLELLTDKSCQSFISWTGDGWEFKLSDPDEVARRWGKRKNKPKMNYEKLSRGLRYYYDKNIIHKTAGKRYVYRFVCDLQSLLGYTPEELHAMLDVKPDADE
TEST_NAME: ETS1 binding intensity (PBM fluorescence) in presence of RUNX1, normalised to ETS1-only experiment (arbitrary fluorescence units); higher = stronger binding
CONDITION_LABEL: ETS1 concentration 1 nM; RUNX1 concentration 25 nM
Give ETS1 binding intensity for every item shown.

Ask: Field request: ETS1 binding intensity | item: GCCGCCTCTTCCTGTGTTGCAAACCACAGGTCCACC
Reply: 2340

Ask: Field request: ETS1 binding intensity | item: GTTTCTCTGGCCAGGAAATTGAGGTTTCTGTTAGTC
Reply: 3260

Ask: Field request: ETS1 binding intensity | item: CGGGTTGGGCAGGAAGCAGCATGACCGCAGTGGGTC
Reply: 17000

Ask: Field request: ETS1 binding intensity | item: CTATATCACATCCTTTCTCTGACCGCGCTGACTTCG
Reply: 481

Ask: Field request: ETS1 binding intensity | item: AGAACAGCAGGAAATAAATACCCACCTCAGGACTGC
Reply: 1050

Ask: Field request: ETS1 binding intensity | item: TAGCCATCGTGCAAAGGATGTGGTGAAGTCAGTCAG
Reply: 2620

Ask: Field request: ETS1 binding intensity | item: CAACACAGGATGTGCAGTATTATACCGCAAAGCACT
Reply: 6950

Ask: Field request: ETS1 binding intensity | item: CTGCTTCCGGCCCCGGGGTTCGCTACCCCACAATCC
Reply: 1240

Ask: Field request: ETS1 binding intensity | item: AGGGTTACAATTTCCGTAAACCACAGAAGCAGCAGA
Reply: 979

Ask: Field request: ETS1 binding intensity | item: AACGACAAACCGGAAGTATGGTTTGCCGCCTGAAGC
Reply: 19500

Ask: Field request: ETS1 binding intensity | item: CTCTGAACTTCCTCTCTTTTAACCACAACTTACTAC
Reply: 1420

Ask: Field request: ETS1 binding intensity | item: CGCCGTAGGAGGAAGCCGCGGCCGCAACGCTCCTGG
Reply: 816

Ask: Field request: ETS1 binding intensity | item: TTGTCTGCATCCTGTGCTGTGTGGTAGCTCTGGGTT
Reply: 541

Ask: Field request: ETS1 binding intensity | item: CCGCCCTCCACCGAGTTCCGGCCACAGAGCGGGCCC
Reply: 547

Ask: Field request: ETS1 binding intensity | item: GTGGGGGTGACAGGATGCGGGTAGAGGGCTCAGCCA
Reply: 2770

Ask: Field request: ETS1 binding intensity | item: TCTCTACTTCCCATTATTTCTGTGGTTAATTTCACC
Reply: 986

Ask: Field request: ETS1 binding intensity | item: ATCTTCAGGAAGCGGTATCAACCTGAAAACCACCAC
Reply: 870

Ask: Field request: ETS1 binding intensity | item: AGGGAAGCAGGAAGTGACTGCGGGAGTGGAGCCGGC
Reply: 3540

Ask: Field request: ETS1 binding intensity | item: AACAGTACTTCCGGGGCAAGTGAGCGCCCACAAGGC
Reply: 1300

Ask: Field request: ETS1 binding intensity | item: TCCGGAAATAGATAATATCTAGTTAAACCTCAAAAT
Reply: 2850

Ask: Field request: ETS1 binding intensity | item: GAAACCCCATGGGCAGGATGTGGGTGAGCTGTCTGG
Reply: 5020

Ask: Field request: ETS1 binding intensity | item: ACTCGGGAATGTCCGGTCGTGGTAAGCAGGGTGGCA
Reply: 529

Ask: Field request: ETS1 binding intensity | item: GACCGAGAGGAAGCAGCAAGGATCCTGCGGTTCCAG
Reply: 1990

Ask: Field request: ETS1 binding intensity | item: GGACGCCGCCGGAAGCGCGACCCGCACTCCCGGTAG
Reply: 3500

Ask: Field request: ETS1 binding intensity | item: ACCATAAGGACCGGAAGCAGAGACCACACTGGTGCT
Reply: 12600

Ask: Field request: ETS1 binding intensity | item: CCAGAATGCAGGAAGTGCTGTGGTTTGACTTTGTTT
Reply: 9350

Ask: Field request: ETS1 binding intensity | item: GCTTCTTCAGCCACATCCTGACCACAGCCCAGATTC
Reply: 1270

Ask: Field request: ETS1 binding intensity | item: GGAACAGGAAAAGCCTCCGGCAGCCCCTGCGGGCGG
Reply: 941

Ask: Field request: ETS1 binding intensity | item: GCCTGCACCCTAGTTCCGGTGTGGGTGGAGGGGCCG
Reply: 999

Ask: Field request: ETS1 binding intensity | item: CAGGCCTTTCCTGCTATCGTTTGTGGTTTGAGCAGT
Reply: 1120

Ask: Field request: ETS1 binding intensity | item: AATCATCAGGGAAATGCAAATCAAAACCACAATCAG
Reply: 1200

Ask: Field request: ETS1 binding intensity | item: GAAATGAGAGAACGGAAACCACAAGTCAAGGGGCTT
Reply: 2790

Ask: Field request: ETS1 binding intensity | item: GCAGGAAGACTAACACAAAACCATCAAACCACTCTG
Reply: 543

Ask: Field request: ETS1 binding intensity | item: TCCCCACATCCTTTAAAACGATGAGATAACCACATG
Reply: 636

Ask: Field request: ETS1 binding intensity | item: GTGGGGCGGGCTTCCGGCGCTCCCACCGCGAGCCGA
Reply: 1050

Ask: Field request: ETS1 binding intensity | item: CCCGGAGGACGTCCGGCCTCTGTGAGCCGCAACCTT
Reply: 561

Ask: Field request: ETS1 binding intensity | item: CCAGCCTCCCCTTTCCTGTCTGTGGCAGGAGCGTGC
Reply: 512

Ask: Field request: ETS1 binding intensity | item: TGTCCGGGCAGGAAGGGGTGCTCTGTGGGCTTGGAG
Reply: 1050

Ask: Field request: ETS1 binding intensity | item: CTCCACCGGATGCAGCAATGAAGGCCGCAGGAATGG
Reply: 3990

Ask: Field request: ETS1 binding intensity | item: CGGGCTGGGAGGAAGTGATGGCTGACCACAGAGGAG
Reply: 4610

Ask: Field request: ETS1 binding intensity | item: CCCGACTTCCGCCGCTGGTGGCCACCCGCAGGTAGT
Reply: 1050

Ask: Field request: ETS1 binding intensity | item: TCCCTCCTTCCGCTCTGGTTTTGTGGTTGCTTGCTG
Reply: 1620

Ask: Field request: ETS1 binding intensity | item: CAGATTCGTGTTTCCGTGCCCGCAGCTCCGTCAGCT
Reply: 362

Ask: Field request: ETS1 binding intensity | item: CTCAGAGGCACCAAGGGAAGTGGTTAAAACAGAAAG
Reply: 1790

Ask: Field request: ETS1 binding intensity | item: ACTGGCTTCACTTCCTCCGCGGTTCCTCGGAGCCGC
Reply: 514

Ask: Field request: ETS1 binding intensity | item: CTGGTAGAAAAGGAAGCAGGTTGTGGTGAGCATTTA
Reply: 1720

Ask: Field request: ETS1 binding intensity | item: TGAGAAAACAGGAAGCGCCCAGTCACCACAGAAAGC
Reply: 5290

Ask: Field request: ETS1 binding intensity | item: CCTTCCTTCCGGGGTCGGCCCCGCCCGCAAGCGCCG
Reply: 467

Ask: Field request: ETS1 binding intensity | item: ACACAGAGAGTGAGAGGAAGTGGTTTAGAGATGAGA
Reply: 3210

Ask: Field request: ETS1 binding intensity | item: CGGTGGCTTCCGGCCCATGGCGGTGGTTGGTGACTC
Reply: 953

* * *

SUBJECT_OF_TEST: RUNX1 (UniProt Q01196)
Sequence (Q01196 whole entry): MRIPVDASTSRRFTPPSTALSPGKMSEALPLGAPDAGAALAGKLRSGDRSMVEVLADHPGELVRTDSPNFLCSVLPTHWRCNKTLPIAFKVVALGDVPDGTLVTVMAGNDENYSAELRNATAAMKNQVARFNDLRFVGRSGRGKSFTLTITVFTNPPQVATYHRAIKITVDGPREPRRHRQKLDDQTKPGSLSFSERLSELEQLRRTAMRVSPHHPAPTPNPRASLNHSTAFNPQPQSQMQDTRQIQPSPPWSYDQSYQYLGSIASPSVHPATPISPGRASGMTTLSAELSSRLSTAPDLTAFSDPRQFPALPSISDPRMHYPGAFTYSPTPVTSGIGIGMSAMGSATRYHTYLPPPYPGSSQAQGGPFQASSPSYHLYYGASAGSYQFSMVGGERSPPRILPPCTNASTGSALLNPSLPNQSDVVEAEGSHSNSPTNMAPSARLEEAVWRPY
TEST_NAME: RUNX1 binding intensity (PBM fluorescence), RUNX1 alone (arbitrary fluorescence units); higher = stronger binding
CONDITION_LABEL: RUNX1 concentration 2 nM; ETS1 concentration 0 nM
MEASURE_NAME: RUNX1 binding intensity
Give only the figure.

Ask: Field request: RUNX1 binding intensity | item: CCCTTCCGCGTGGGTTGCACCTGCTAACCACAGAGC
Reply: 1090

Ask: Field request: RUNX1 binding intensity | item: AGAAGGCGCCGGAAGTGGTCCCGCAGAGGCGGGGTG
Reply: 725

Ask: Field request: RUNX1 binding intensity | item: CAGAGGACAGGATGCCAACCCCAAAACCGCAGCGAC
Reply: 4020

Ask: Field request: RUNX1 binding intensity | item: GGACGCCGCCGGAAGCGCGACCCGCACTCCCGGTAG
Reply: 794

Ask: Field request: RUNX1 binding intensity | item: CACTCCCCGAATCCGGTCTGCGGCGCGCTCGGGGCC
Reply: 774

Ask: Field request: RUNX1 binding intensity | item: CCCGCCGGAAGGACGCGTCTGCGTCTCTGCGGCGAG
Reply: 688
